experimental.system: T1, CAPRIN-1 protein expressed on the membrane surface of human cancer cells (human, UniProt Q14444 2-709)
T1 sequence (looked up): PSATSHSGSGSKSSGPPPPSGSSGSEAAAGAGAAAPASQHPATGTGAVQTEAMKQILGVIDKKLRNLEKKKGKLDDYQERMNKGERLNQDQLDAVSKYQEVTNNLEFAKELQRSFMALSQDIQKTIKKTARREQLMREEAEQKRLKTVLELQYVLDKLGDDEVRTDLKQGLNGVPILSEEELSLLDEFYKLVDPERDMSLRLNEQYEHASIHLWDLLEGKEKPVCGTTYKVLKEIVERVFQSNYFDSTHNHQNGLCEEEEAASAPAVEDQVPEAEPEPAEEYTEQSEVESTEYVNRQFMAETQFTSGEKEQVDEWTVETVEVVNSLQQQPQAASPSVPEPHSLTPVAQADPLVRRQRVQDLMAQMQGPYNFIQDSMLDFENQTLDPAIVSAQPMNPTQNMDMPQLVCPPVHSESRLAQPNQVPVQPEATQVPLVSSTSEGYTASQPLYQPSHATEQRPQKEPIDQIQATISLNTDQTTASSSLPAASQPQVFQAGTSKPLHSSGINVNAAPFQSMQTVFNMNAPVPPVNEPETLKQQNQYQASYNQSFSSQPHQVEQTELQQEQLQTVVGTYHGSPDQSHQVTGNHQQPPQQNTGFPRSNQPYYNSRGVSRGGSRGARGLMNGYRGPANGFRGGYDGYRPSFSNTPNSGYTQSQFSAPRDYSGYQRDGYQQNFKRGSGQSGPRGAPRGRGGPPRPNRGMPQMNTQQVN
protocol.text: cell-based or functional assay
Some binders, each annotated with its measured ADCC cytotoxic activity (51Cr release) on IM-9.
property: ADCC cytotoxic activity (51Cr release) on IM-9

- binder: "humanized antibody #2 (antibody, V domains shown) VH: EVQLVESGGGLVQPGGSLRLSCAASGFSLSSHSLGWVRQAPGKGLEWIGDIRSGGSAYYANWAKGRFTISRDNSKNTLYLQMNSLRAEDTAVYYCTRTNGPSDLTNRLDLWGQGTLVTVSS VL: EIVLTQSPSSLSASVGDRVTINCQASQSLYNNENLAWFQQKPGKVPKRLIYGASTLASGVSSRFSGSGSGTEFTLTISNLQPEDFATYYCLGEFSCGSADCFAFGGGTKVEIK"
  assay.result: "≥ 30%"
- binder: "human-rabbit chimeric anti-CAPRIN-1 antibody (antibody, V domains shown) VH: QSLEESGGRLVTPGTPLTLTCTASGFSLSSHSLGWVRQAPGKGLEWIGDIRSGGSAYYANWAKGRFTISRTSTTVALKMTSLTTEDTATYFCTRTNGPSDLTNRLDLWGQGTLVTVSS VL: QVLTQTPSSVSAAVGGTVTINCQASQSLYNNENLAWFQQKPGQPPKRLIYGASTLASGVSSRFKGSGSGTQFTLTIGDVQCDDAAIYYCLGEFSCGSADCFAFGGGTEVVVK"
  assay.result: "≥ 27%"
- binder: "humanized antibody #4 (antibody, V domains shown) VH: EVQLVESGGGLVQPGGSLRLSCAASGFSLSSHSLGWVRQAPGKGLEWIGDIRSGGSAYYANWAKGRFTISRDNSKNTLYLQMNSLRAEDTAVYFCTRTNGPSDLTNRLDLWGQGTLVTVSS VL: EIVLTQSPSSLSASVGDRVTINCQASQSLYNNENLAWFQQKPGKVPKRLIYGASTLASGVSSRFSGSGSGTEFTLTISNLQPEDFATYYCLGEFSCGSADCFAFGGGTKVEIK"
  assay.result: "≥ 30%"
